Target: T1, 4H591-bN
T1 chain: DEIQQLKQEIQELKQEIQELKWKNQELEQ
Assay: two-hybrid library CCNG1;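 note: natural log of median RNA to DNA barcode read ratio; higher means stronger binding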
endpoint-name: interaction score

Recorded interaction score, per entry:
DKNQQLEQKNQELEQEIQELEWKIQELKQ [4H3462-bN]	-0.826
DEIAQLKQEIAELKQEIAELEWKNAQLKQ [4H584-bA]	-0.664
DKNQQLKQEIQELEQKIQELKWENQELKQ [4H3628-bN]	-0.603
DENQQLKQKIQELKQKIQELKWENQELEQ [4H1899-bN]	-1.42

(P) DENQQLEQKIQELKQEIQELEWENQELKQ [4H1348-bN]
(Q) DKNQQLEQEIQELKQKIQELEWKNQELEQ [4H3175-bN]
Req: Would you kindly point out which of P and Q has the smaller interaction score figure? Pick one; state its label.
Resp: P
